Quick reference: bioavailability of the listed items.
# run-description: Oral bioavailability in CD-1 mouse at 5 mg/kg administered as single dose measured upto 24 hrs by LC-MS/MS analysis
# Format: ADME, organism-based
# cond: in vivo
property-measured: bioavailability

>>> df
                              line_notation  experimental_value
0  COc1cccc2c1Sc1cccc(F)c1C=C2OP(=O)([O-])OC1=Cc2c(F)cccc2Sc2c(OC)cccc21.[Na+]               0.91%
1  O=P([O-])(OC1=Cc2ccccc2Sc2ccccc21)OC1=Cc2ccccc2Sc2ccccc21.[Na+]               15.7%
2  O=P([O-])(OC1=Cc2c(Cl)cccc2Sc2ccccc21)OC1=Cc2c(Cl)cccc2Sc2ccccc21.[Na+]               11.9%
3  COc1cccc2c1Sc1ccccc1C=C2OP(=O)([O-])OC1=Cc2ccccc2Sc2c(OC)cccc21.[Na+]                2.3%
